Where these numbers come from: paper PMC5461267

Experimental System: ROS-GC1 (rod outer segment guanylate cyclase type 1), full-length recombinant (Bos taurus, UniProt P55203, A1013R)
Sequence (P55203 57-1110 A1013R): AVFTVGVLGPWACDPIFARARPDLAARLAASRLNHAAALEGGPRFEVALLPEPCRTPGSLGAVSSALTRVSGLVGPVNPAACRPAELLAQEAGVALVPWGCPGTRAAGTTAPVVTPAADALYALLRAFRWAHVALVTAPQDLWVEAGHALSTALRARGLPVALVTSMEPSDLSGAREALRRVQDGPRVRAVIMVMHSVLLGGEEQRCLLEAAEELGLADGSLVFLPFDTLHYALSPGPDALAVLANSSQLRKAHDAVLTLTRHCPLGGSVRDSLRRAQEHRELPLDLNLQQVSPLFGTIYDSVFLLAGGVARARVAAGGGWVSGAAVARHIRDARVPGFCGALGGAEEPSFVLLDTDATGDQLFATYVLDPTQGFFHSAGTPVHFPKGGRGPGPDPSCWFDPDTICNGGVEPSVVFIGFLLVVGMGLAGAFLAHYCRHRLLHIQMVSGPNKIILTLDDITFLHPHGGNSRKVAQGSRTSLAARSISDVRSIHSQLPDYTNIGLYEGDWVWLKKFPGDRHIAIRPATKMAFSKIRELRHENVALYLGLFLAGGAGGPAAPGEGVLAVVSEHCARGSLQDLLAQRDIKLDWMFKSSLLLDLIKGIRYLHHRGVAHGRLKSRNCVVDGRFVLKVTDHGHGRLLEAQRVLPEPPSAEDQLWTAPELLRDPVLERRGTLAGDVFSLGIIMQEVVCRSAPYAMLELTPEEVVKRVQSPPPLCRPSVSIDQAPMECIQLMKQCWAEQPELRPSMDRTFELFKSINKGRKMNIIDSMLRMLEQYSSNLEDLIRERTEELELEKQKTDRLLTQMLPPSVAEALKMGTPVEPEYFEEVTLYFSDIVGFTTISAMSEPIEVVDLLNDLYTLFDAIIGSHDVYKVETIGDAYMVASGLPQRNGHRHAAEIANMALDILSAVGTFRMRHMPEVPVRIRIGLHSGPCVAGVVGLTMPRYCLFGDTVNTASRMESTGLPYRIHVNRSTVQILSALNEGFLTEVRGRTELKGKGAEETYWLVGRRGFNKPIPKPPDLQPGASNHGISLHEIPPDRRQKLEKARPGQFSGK
Measurement Description: biochemical
Result Type: EC50 (mM)
Enter your answer as a number in mM; do not include the unit.

get_value(item= O=C(O)O [bicarbonate] , readout=EC50) returns 25

----------
Experimental System: ROS-GC1 (rod outer segment guanylate cyclase type 1), full-length recombinant (Bos taurus, UniProt P55203, A1013R/N1009A)
Sequence (P55203 57-1110 N1009A/A1013R): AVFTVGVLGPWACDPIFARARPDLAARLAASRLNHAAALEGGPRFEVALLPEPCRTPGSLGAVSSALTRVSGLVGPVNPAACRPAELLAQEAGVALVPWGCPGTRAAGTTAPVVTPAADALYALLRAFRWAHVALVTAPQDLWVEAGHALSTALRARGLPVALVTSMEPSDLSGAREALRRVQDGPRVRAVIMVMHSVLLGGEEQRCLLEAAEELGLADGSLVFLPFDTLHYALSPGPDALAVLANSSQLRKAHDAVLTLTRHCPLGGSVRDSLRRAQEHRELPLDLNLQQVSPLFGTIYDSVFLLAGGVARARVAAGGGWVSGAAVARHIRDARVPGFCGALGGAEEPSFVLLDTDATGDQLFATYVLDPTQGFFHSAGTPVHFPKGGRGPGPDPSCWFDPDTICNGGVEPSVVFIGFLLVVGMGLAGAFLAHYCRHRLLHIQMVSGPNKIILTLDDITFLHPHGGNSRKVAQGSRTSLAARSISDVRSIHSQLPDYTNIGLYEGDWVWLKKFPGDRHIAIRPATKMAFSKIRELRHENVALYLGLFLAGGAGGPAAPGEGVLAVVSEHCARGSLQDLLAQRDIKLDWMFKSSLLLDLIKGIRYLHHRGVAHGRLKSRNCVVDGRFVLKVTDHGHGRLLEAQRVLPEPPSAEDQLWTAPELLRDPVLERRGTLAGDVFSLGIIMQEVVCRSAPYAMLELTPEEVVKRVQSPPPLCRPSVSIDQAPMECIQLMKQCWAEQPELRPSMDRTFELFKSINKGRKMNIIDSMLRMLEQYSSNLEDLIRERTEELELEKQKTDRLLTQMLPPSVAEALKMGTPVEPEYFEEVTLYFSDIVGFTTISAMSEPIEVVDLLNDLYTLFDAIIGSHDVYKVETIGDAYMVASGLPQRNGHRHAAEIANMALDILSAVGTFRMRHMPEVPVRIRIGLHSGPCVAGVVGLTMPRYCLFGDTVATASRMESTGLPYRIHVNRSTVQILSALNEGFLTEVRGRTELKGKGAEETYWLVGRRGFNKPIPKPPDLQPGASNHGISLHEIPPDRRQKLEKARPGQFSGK
Measurement Description: biochemical
pEC50: −log10 of the molar value.
Result Type: pEC50

get_value(item= O=C(O)O [bicarbonate] , readout=pEC50) returns ~1.60

----------
Experimental System: ROS-GC1 (rod outer segment guanylate cyclase type 1), full-length recombinant (Bos taurus, UniProt P55203, A1013R/D934A)
Sequence (P55203 57-1110 D934A/A1013R): as the sequence (P55203 57-1110 A1013R) above, with D878A counted along it
Measurement Description: biochemical
pEC50: −log10 of the molar value.
Result Type: pEC50

get_value(item= O=C(O)O [bicarbonate] , readout=pEC50) returns ~1.52
